Taken from the RNAGym collection of RNA variant scans (doi:10.1073/pnas.2313332121).

B1: TPR t1 (parent)
chain: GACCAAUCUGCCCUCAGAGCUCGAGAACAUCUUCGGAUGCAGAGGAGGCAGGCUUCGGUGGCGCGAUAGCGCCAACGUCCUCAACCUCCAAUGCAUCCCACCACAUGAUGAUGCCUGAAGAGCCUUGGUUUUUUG

- Variants of: B1
- procedureText: polymerase ribozyme fitness, log enrichment relative to wild type (log ratio); higher = more active; in vitro selection for triplet polymerase activity
Threshold rule: polymerase ribozyme fitness (log ratio) greater than or equal to -2 is y; below that, n.

Query: Is polymerase ribozyme fitness (log ratio) for GACCAAUCUGCCCUCAGAGCUUGAGAACAUCUUCGGAUGCAGAGGAGGCAGGCUUGGGUAGCGCGAUAGCGCCAACGUCCUCAACCUCCAAUGCAUCCCACCACAUGAUGAUGCCUGAAGAGCCUUGGUUUUUUG [C22U C56G G60A] at or above -2?
Result: n

Query: Item GACCAAUCUGCCCUCAGAGCUCGAGAACAUCUUCGGAUGCAGAGGAGGCAGGCUUCGGUAGCGCGAUAGCGCCAACGUCCUCAACCUUCAAUGCAUCCCACCACAUGAUGAUGCCUGAAGAGCCUUGGUUUUUUG [G60A C88U] with polymerase ribozyme fitness (log ratio) of -2 or above?
Result: y

Query: polymerase ribozyme fitness (log ratio) >= -2 for GACCAAUCUGCUCUCAGAGCUCGAUAACAUCUUCGGAUGCAGAGGAGGCAGGCUUCGGUGGCGCGAUAGCGCCAACGUCCUCAACCUCCAAUGCAUCCCACCACAUGAUGAUGCCUGAAGAGCCUUGGUUUUUUG [C12U G25U] ?
Result: n

Query: Determine whether this variant has polymerase ribozyme fitness (log ratio) no lower than -2: GACCAAUCUGCCCUCAGAGCUCGAGAACAUCUUCGGAUGCCGAGGAGGCAGGCUUCGGUGGCGCGAUAGCGCCAACGGCCUCAACCUCCAAUGCAUCCCACCACAUGAUGAUGCCUGAAGAACCUUGGUUUUUUG [A41C U78G G122A]
Result: y

Query: Threshold query (polymerase ribozyme fitness (log ratio) >= -2) on GACCAAUCUGCCCUUAGAGCUCGAGAACAUCUUCGGAUGCAGAGGAGGCAGGCUUUGGUGGCGCGAUAGCGCCAACGUCCUCAACCGCCAAUGCAUCCCACCACAUGAUGAUACCUGAAGAGCCUUGGUAUUUUG [C15U C56U U87G G113A U130A]
Result: n

Query: Is polymerase ribozyme fitness (log ratio) for GACCAAUCUGCCCUCAGAGCUCGAGAACAUCUUCGGAUGCAGAGGAGGCCGGCUUCGGUCGCGAGAUAGCGCCAACGUCCUCAACCUCCAAUGCAUCCCACCGAAUGAUGAUGCCUGAAGAGCUUUGGUUUUUUG [A50C G60C C64A A103G C104A C124U] at or above -2?
Result: n

Query: Entry GACCAAUCUGCCCUCAGAGCUCGAGAACAUCUUCGGAUGCUGAGGAGGCAGGCUUCGGUGGCGCGAUAGCGCCAACGUCCUCAACCUCCCAUGCAUCCCACCACAUGAUGAUGCCUGAAGAGCGUUGGUUUUUUG [A41U A90C C124G] : is its polymerase ribozyme fitness (log ratio) no less than -2?
Result: y

Query: Threshold query (polymerase ribozyme fitness (log ratio) >= -2) on GACCAAUCUGCCCUCAGAGCUCGAGAACAUCUUCGGAUGCAGAGGAGGCAGGCUUCGGUGGCGCGAUAGCGCCAACGUCCUCAACCGCCAAUGCAUCCCACCACAUGAUGAUGCCUGAGGAGCCUUGGUUUUUUG [U87G A119G]
Result: y

Query: hey, is polymerase ribozyme fitness (log ratio) for this one >= -2? GACCAAUCUGCCCUCAGAGCUCGAGACCAUCUUCGGAUGCAGAGGAGGCAGGCUUAGGUGGCGCGAUAGCGCCAACGUCCUCAACCUCCAAUGCAUCCCACCACAUGAUGAUGCCUGAAGAGCCUUGGUUUUUUG [A27C C56A]
Result: n

Query: Textbook exercise: given the entry GACCAAUCUGCCCUCAGAGCUCGAGAACAUCUUCGGAUGCAGAGGAGGCAGGCUUCGGUGGCGCGAUAGCGCGAACGUCCUCAACUUCCAAUGCAUCCCACCACAUGAAGAUGCCUGAAGAGCCUUGGUUUUUUG [C73G C86U U109A] , state whether its polymerase ribozyme fitness (log ratio) is greater than or equal to -2.
Result: n

Query: Form field: polymerase ribozyme fitness (log ratio) at least -2? Entry: GACCAAUCUGCCCUCAGAGCUCGAGAACAUCUUCGAAUGCAGAGGAGGCAGCCUUCGGUGGCGCGAUAGCGCCAACGUCCUCAACCUCCAAUGCGUCCCACCACAUGAUGAUACCUGAAGAGCCUUGGUUUUUUG [G36A G52C A95G G113A]
Result: n

Query: I'd appreciate it if you could say whether GACCAAUCUGCCCUCAGAGCUCGAGAACAUCUUCGGAUGCAGAGGAGGCAGGCUUCGGUGGCGCGAUAGCGCCAACGUCCUUAACCUCCUAUGCAUUCCACCACAUGAUGAUGCCUGGAGAGCCUUGGUUUUUUG [C82U A90U C97U A118G] has polymerase ribozyme fitness (log ratio) at least equal to -2.
Result: n

Query: Say whether GACCAAUCUGCCUUCAGAGCUCGAGAACAUCUUCGGAUGCAGAGGAGGCAGGCUUCGGUGGCGCGAUAGCGUCAACGUCCUCAACCUCCAAUGGAUCCCACCACAUGAUGAUGCCUGAAGAGCCUUGGUUUUUUG [C13U C72U C94G] shows polymerase ribozyme fitness (log ratio) of -2 or more.
Result: y

Query: Hi team, for GACCGAUCUGGCCUCGGAGCUCGAGAACAUCUUCGGAUGCAGAGGAGGCAGGCUUCGGUGGCUCGAUAGCGCCCACUUCCUCAACCUCCAAUGCCUCCCACCACAUGAUGAUGCCUUAAGAGCCUUGGUUUUUUG [A5G C11G A16G G63U A74C G77U A95C G117U] , is the recorded polymerase ribozyme fitness (log ratio) at or above -2?
Result: n

Query: Determine whether this variant has polymerase ribozyme fitness (log ratio) no lower than -2: GACCAAUCUGCCCUCAGAGCUCGAGAACAUCUUCGGAUGGAGAGGAGGCAGGCUUCGGUGGCGCGAUAGCGCCAACGUCCUCAACCUCCAAUGCAUCCCACCACAUGAUGAAGCCUGAAGAGCCUUGGUUUUUUG [C40G U112A]
Result: y

Query: In plain terms: is recorded polymerase ribozyme fitness (log ratio) at least -2 for GACCAAUCUGGCCUCAGAGCUCGAGACCAUCUUCGGAUGCAGAGGAGGCAGGCUUCGGUGGCGCGAUAGCGCCAACGUCCUCAACCUCCAAUGCAUCCCACCACAUGAUGAUCCCUGAAGAGCCUUCGUUUUUUG [C11G A27C G113C G127C] ?
Result: n

Query: Please check the record GACCAAUCUGCCCUCAGAGUUCGAGAACAUCUUCGGAUACAGAGGAGGCAGGCUUCGGUGGCGCGAUAGCGCCAACGUCCUCAACCUCCAAUGCAUCCCACCACAUGAUUAUGCCUGAAGAGCCUUGAUUUUUUG [C20U G39A G110U G128A] and state if its polymerase ribozyme fitness (log ratio) is at or above -2.
Result: n

Query: Hi, just wondering whether GACCAAUCUGCCCUCAGAGCUCGAGAACAUCUUCGGAUGGAGAGGAGGCAGGCUUCGGUGGCACGAUAGCGCCAACGUCCUCAACCUCCAAGGCAUCCCACCACAUGAUGAUGCCUGAAGAGCCUUGGUUUUUUG [C40G G63A U92G] shows polymerase ribozyme fitness (log ratio) of -2 or higher.
Result: n

Query: Decide: polymerase ribozyme fitness (log ratio) of GACCAAUCUGCCCUCUGAGCUCGAGAACAUCUUAGGAUGCAGAGGAGGCAGGCUUCGGUGGCGAGAUAGCGCCAACGUCCUCAACCUCCAAUGCAUCCCACCACAUGAGGAUGCCUGAAGAGACUUGGGUUUUUG [A16U C34A C64A U109G C123A U129G] >= -2?
Result: n

Query: # bool: polymerase ribozyme fitness (log ratio) of GACCAAUCUGCCCUCAGAGCUCGAGAACAUCUUAGGAUGCAGAGGAGGCAGGCUUCGGUGGCGCGAUAGCGCCAACGUCCUUAACCUCCAAUGCAUGCCACCACAUGAUGAUGCCUGAAGAGCCUUGGUUUUUUG [C34A C82U C97G] >= -2
Result: n

Query: Test whether the variant GACCAAUCUGCCCUCAGAGCUCGAGAACAUCUUCGGAUGCAGAGGAGGCAGGCUUCGGUGGCGCGAUAGCGUCAACGUCCUCAACCUCCAACGCAUCCCACCACAUGAUGAUGCCUGAAGAGCCUUGGUUUUUUG [C72U U92C] records polymerase ribozyme fitness (log ratio) of -2 or higher.
Result: y
